Tested on: LK-2
experiment_notes: relative viability (nuclei count vs DMSO), 5 days (fraction); higher = more cells survive
assay_conditions: first compound 0.05 µM
relative viability values by entry
quantity: relative viability

molecule: Nc1ccn([C@@H]2O[C@H](CO)[C@@H](O)[C@@H]2O)c(=O)n1 [Cytarabine] + O=C(CCCCCCC(=O)Nc1ccccc1)NO [Vorinostat] (partner 1 µM)
system_name: LK-2
reading: 0.242
--
molecule: COc1cc2nccc(Oc3ccc(NC(=O)Nc4cc(C)on4)c(Cl)c3)c2cc1OC [Tivozanib] + COc1cc2c(Oc3ccc(NC(=O)C4(C(=O)Nc5ccc(F)cc5)CC4)cc3F)ccnc2cc1OCCCN1CCOCC1 [Foretinib] (partner 0.25 µM)
system_name: LK-2
reading: 1.18
--
molecule: COc1cc2nccc(Oc3ccc(NC(=O)Nc4cc(C)on4)c(Cl)c3)c2cc1OC [Tivozanib] + C[C@]1(O)C[C@@H](c2nc(-c3ccc4ccc(-c5ccccc5)nc4c3)c3c(N)nccn32)C1 [Linsitinib] (partner 1 µM)
system_name: LK-2
reading: 0.49
